biological target: T1, Ab-12, anti-PD-L1xCD28 non-masked antibody in Vh format; assay: competition ELISA: peptide titrated against 5 nM Ab-12; binding of Ab-12 to captured biotinylated CD28 antigen is read
T1 construct: also called PDL1xCD28 non-masked (Vh)
Ends that are not written are not given here.
Item-by-item account of IC50

{"columns": ["binder", "IC50"],
 "data": [
  ["MHWCPVDLWYLCYN (cysteine pairing not given here; also: biotinylated, site not given here, Synthetic biotinylated peptide loaded on streptavidin biosensors) [Peptide-49]", "170 nM"]
]}

response.value for MDWCPVHLWSVCFA (cysteine pairing not given here; also: biotinylated, site not given here, Synthetic biotinylated peptide loaded on streptavidin biosensors) [Peptide-50] (field: IC50) = 2340 nM

response.value for MDWCPRERWVDCFF (cysteine pairing not given here; also: biotinylated, site not given here) [Peptide-9] (field: IC50) = 2630 nM

response.value for MDWCPRERWVDCFF [Peptide-51] (field: IC50) = 2620 nM
